B1: ZNF263 (parent)
chain: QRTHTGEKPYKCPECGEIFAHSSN

variants of: B1; assay: protein stability index of a GFP-peptide fusion (GPS, HEK-293T) (PSI 1-6); higher = more stable; settings: c terminus: a fixed tail appended;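 note: lentivirally expressed fusions sorted by FACS into six bins by GFP to DsRed ratio, PSI derived from sequencing read proportions per bin multiplied by bin number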
Assign protein stability index to each entry below.
API note: the answer field is a bare number with no unit suffix.

Lookup: Request the reported protein stability index associated with R2N
Found: 4.07

Lookup: // same read-out, input: C15E
Found: 4.82

Lookup: // same read-out, input: H21P
Found: 3.5

Lookup: // same read-out, input: H4Q
Found: 3.52

Lookup: // same read-out, input: H4P
Found: 3.27

Lookup: // same read-out, input: E7G
Found: 3

Lookup: // same read-out, input: G6N
Found: 2.85

Lookup: // same read-out, input: S22T
Found: 2.92

Lookup: // same read-out, input: P9S
Found: 3.59

Lookup: // same read-out, input: A20F
Found: 3.18

Lookup: // same read-out, input: C12W
Found: 3.62

Lookup: // same read-out, input: E17P
Found: 3.72

Lookup: // same read-out, input: C15L
Found: 3.97

Lookup: // same read-out, input: R2T
Found: 3.45

Lookup: // same read-out, input: E7S
Found: 3.05

Lookup: // same read-out, input: F19I
Found: 3.37

Lookup: // same read-out, input: R2P
Found: 3.77

Lookup: // same read-out, input: K11P
Found: 4.12

Lookup: // same read-out, input: P9E
Found: 3.26

Lookup: // same read-out, input: Q1H
Found: 3.6

Lookup: // same read-out, input: K11V
Found: 3.17

Lookup: // same read-out, input: Q1A
Found: 2.49
